Molecular target: UniProtKB Q9NR97
Sequence (Q9NR97 27-1041): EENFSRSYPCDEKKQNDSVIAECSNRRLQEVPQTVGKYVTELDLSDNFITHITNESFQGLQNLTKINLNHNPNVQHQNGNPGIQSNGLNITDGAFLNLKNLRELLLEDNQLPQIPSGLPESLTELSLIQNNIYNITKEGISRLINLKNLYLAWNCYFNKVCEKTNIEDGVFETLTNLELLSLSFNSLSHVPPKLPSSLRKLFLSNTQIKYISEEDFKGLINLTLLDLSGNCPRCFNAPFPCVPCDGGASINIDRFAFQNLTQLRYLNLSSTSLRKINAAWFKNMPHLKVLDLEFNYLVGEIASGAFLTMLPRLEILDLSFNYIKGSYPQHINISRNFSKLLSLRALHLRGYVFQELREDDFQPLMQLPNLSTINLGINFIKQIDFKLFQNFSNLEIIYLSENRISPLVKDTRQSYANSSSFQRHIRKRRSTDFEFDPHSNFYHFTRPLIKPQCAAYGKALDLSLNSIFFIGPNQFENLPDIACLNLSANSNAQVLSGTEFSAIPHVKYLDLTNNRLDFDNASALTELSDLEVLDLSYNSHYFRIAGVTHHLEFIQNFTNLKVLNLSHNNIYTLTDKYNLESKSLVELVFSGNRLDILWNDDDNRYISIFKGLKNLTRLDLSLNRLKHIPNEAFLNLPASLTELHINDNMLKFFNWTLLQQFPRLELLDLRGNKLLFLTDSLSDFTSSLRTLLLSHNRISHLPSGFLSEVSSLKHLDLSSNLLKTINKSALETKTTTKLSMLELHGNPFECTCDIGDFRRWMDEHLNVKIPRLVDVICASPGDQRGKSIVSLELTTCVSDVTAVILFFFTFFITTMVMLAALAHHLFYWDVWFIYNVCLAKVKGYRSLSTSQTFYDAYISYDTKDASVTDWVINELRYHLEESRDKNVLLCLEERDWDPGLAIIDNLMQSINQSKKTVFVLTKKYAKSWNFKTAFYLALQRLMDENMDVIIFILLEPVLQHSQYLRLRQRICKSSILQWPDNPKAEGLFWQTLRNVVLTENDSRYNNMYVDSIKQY
Experiment: TLR8 inhibition reporter assay (HEK-Blue cells, SEAP reporter, R848 stimulation)
Conditions: HEK-Blue cells overexpressing human TLR8, SEAP reporter, R848 15.9 μM
pIC50: −log10 of the molar value.
assay_endpoint: pIC50

Find the measured pIC50: item Cc1nnn2ccc(-c3[nH]c4ccc(C5CCN(C6CCOCC6)CC5)cc4c3C(C)C)cc12 [Example 700] , target or system UniProtKB Q9NR97.
> 7.00

Cool, now Cc1cc(-c2[nH]c3ccc(C4CCN(C(=O)CN(C)C)CC4)cc3c2C(C)C)nc2scnc12 [Example 543]
> 7.00

Also need CCc1c(C)c(-c2[nH]c3ccc(C4CCN(CC(=O)NC)CC4)cc3c2C(C)C)cn2ccnc12 [Example 418] , thanks.
6.00 to 7.00

Lookup CC(C)c1c(-c2ccnc3[nH]ncc23)[nH]c2ccc(C3CCN(CCN4CCCCCC4)CC3)cc12 [Example 660]
> 7.00

----------
Target: UniProt:Q9NR96
Sequence (Q9NR96 26-1032): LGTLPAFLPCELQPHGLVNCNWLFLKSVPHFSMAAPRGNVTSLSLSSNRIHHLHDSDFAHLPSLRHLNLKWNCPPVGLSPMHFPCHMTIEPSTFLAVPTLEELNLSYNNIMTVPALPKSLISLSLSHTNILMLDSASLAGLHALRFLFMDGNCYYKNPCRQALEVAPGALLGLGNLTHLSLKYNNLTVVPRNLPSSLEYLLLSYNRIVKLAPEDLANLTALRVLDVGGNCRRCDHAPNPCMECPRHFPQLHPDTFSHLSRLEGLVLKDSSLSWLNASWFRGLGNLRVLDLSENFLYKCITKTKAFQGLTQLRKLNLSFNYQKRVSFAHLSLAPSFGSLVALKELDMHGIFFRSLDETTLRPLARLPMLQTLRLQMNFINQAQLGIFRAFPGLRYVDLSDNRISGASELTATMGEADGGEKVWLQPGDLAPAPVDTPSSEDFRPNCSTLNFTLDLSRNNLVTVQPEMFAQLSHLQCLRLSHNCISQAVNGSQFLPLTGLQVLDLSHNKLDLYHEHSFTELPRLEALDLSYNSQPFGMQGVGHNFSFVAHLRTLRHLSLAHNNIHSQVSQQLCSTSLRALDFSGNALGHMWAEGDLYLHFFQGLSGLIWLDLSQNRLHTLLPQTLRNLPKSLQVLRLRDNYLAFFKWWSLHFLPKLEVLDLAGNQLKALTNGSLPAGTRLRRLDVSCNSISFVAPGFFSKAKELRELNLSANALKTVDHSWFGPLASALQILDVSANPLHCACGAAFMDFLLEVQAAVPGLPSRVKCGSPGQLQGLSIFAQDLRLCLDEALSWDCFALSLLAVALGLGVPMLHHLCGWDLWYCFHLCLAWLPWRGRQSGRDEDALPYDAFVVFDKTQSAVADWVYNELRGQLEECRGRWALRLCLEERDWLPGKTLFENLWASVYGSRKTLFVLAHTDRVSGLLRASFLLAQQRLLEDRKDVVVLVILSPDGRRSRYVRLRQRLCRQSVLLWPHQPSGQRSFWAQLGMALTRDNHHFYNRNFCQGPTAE
Assay: TLR9 inhibition reporter assay (HEK-Blue cells, SEAP reporter, ODN2006 stimulation)
Conditions: HEK-Blue cells overexpressing human TLR9, SEAP reporter, ODN2006 5 nM
Please provide measured IC50 for the entries that follow.

Quick one: IC50 of "CC(C)c1c(-c2ccc3ncnn3n2)[nH]c2ccc(C3CCN(C4COC4)CC3)cc12" ?
1000 to 50000 nM

What about this compound? "Cc1cc(-c2[nH]c3ccc(C4CCN(CC(=O)N(C)C)CC4)cc3c2C(C)C)nn2ccnc12"
1000 to 50000 nM

What about this compound? "CNC(=O)CN1CCC(c2ccc3[nH]c(-c4cc(C)n5nncc5c4)c(C(C)C)c3c2)CC1"
1000 to 50000 nM

And the next one, "CNC(=O)CN1CCC(c2ccc3[nH]c(-c4cc(C)c5nc(C)c(C)n5c4)c(C(C)C)c3c2)CC1" ?
100 to 1000 nM

Would you mind doing "Cc1cc2nccn2cc1-c1[nH]c2ccc(C3CCN(C4CCOCC4)CC3)cc2c1C(C)C" as well?
100 to 1000 nM

Query "COc1cc(-c2[nH]c3ccc(C4CCN(CC(=O)N(C)C)CC4)cc3c2C(C)C)cc2ncnn12" next
1000 to 50000 nM

"CC(C)c1c(-c2ccnc3[nH]ncc23)[nH]c2ccc(C3CCN(C(=O)CNCC(C)(C)C)CC3)cc12" ?
1000 to 50000 nM

Now the compound "CNCC(=O)N1CCC(c2ccc3[nH]c(-c4cc(C)n5cncc5c4)c(C(C)C)c3c2)CC1"
100 to 1000 nM

Now try "CNC(=O)CN1CCC(c2ccc3[nH]c(-c4cc(OC)n5ccnc5c4)c(C(C)C)c3c2)CC1" .
100 to 1000 nM

Can you check "CNC(=O)CN1CCC(c2ccc3[nH]c(-c4cc(F)c5nccn5c4)c(C(C)C)c3c2)CC1" next?
1000 to 50000 nM

Also need "CNCC(=O)N1CCC(c2ccc3[nH]c(-c4cnc5ncnn5c4)c(C(C)C)c3c2)CC1" , thanks.
1000 to 50000 nM

Now consider "CC(C)c1c(-c2ccn3ncnc3c2)[nH]c2ccc(C3CCNCC3)cc12" and answer again.
1000 to 50000 nM

Repeat for the following compound: "CC(C)c1c(-c2cn(C)c3ncccc23)[nH]c2ccc(C3CCN(Cc4ncn(C)n4)CC3)cc12"
1000 to 50000 nM

Would you mind doing "CNCC(=O)N1CCC(c2ccc3[nH]c(-c4cn5ccnc5c(C)c4C)c(C(C)C)c3c2)CC1" as well?
100 to 1000 nM

"Cc1cc(-c2[nH]c3ccc(C4CCN(Cc5cnn[nH]5)CC4)cc3c2C(C)C)cn2nnnc12" ?
1000 to 50000 nM

Next compound: "CNC(=O)CN1CCC(c2ccc3[nH]c(-c4cc(C)c5ncccc5c4)c(C(C)C)c3c2)CC1"
1000 to 50000 nM

Numbers sourced from patent US11739098B2.
